assayed system: rhesus LIV-1 (rhesus, UniProt H9FSJ2 30-735)
Sequence (H9FSJ2 entry or part of it): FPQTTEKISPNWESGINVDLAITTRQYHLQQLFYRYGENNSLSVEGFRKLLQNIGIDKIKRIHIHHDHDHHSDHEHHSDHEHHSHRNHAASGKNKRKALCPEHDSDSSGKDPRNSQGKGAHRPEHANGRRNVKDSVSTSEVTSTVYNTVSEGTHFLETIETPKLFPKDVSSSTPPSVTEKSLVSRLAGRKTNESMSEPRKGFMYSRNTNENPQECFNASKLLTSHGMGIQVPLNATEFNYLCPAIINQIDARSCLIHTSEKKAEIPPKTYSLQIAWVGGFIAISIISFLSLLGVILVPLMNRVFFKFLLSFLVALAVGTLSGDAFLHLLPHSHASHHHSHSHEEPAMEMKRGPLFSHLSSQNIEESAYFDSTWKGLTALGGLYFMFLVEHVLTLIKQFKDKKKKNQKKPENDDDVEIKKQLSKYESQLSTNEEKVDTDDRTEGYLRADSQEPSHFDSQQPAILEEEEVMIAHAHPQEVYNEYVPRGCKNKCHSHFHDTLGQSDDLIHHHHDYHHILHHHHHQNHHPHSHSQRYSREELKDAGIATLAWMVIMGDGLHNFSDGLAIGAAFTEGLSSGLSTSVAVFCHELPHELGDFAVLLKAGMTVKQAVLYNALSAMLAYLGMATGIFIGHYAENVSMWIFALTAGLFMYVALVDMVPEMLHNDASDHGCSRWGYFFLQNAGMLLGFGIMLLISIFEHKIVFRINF
assay remarks: FACS, HEK293/Rhe_LIV-1 cells
value type: Top (MFI)

{"columns": ["binder", "numeric result"],
 "data": [
  ["5D6B10 (antibody, V domains shown, Tested as chimeric antibody) VH: QVQLKQSGPGLVQPSQSLSITCTVSGFSLTTYGIHWVRQSPGKGLEWLGVIWTGGTTDYNAAFISRLSISKDNSKSQVFFKMNSLQANDTAIYYCARGPSSYWGQGTLVTVSA VL: DIVMTQSQKFMSTSVGDRVSVTCKASQNVDTNVVWYQQKPGQSPKALIHSASYRYSGVPDRFTGSGSGTDFTLTISNVQSEDLAEYFCQQYNNYPWTFGGGTKLEIK", 38400],
  ["124H4D11.p2.z4 (antibody, V domains shown) VH: QVQLVQSGAEVVKPGASVKVSCKASGFNIKDYYMHWVRQAPGQGLEWIGWIDPENDDTEYDPKFQGRVTMTADTSTSTVYMELSSLRSEDTAVYYCAARYYAFDYWGQGTMVTVSS VL: DVLMTQSPLSLPVTLGQPASISCRSSQSIVHSNANTYLEWYLQRPGQSPRLLIYKVSNRFSGVPDRFSGSGSGTDFTLKISRVEAEDVGVYYCFQGSQVPPTFGQGTKLEIK", 5420],
  ["290F10G10 (antibody, V domains shown, Tested as chimeric antibody) VH: IQLQQSGAELARPGASVKLSCKASGYTFTSYWIHWVKERPGQGLEWIGTIYPGDGDTRSTQKFKDKATVTAEKSSSTVYMQLSSLASEDSAVYYCTRSLIHDDYDKYYFDYWGQGTTLTVSS VL: DIQMTQSPSSLSASLGGKVTITCKARQDINKYIAWYQHKPGKGPRLLIHYTSILQPGIPSRFSGSGSGRDYSFSISNLEPEDIATYYCLQYDYFFTFGSGTKLEIK", 5270],
  ["5D6B10.Z7 (antibody, V domains shown) VH: QVQLVQSGGGVVQPGRSLRLSCTVSGFSLTTYGIHWVRQSPGKGLEWLGVIWTGGTTDYNAAFISRLTISKDNSKSTVYFQMNSLQAEDTAIYYCARGPSSYWGQGTLVTVSS VL: EIVMTQSPATLSVSPGERATLSCKASQNVDTNVVWYQQKPGQSPRALIYSASYRYSGVPARFSGSGSGTEFTLTISSLQSEDFAVYFCQQYNNYPWTFGQGTKVEIK", 41000]
]}
